# test.target: T1, human MAdCAM (full length) (human, UniProt Q13477 19-382)
# T1 sequence (looked up): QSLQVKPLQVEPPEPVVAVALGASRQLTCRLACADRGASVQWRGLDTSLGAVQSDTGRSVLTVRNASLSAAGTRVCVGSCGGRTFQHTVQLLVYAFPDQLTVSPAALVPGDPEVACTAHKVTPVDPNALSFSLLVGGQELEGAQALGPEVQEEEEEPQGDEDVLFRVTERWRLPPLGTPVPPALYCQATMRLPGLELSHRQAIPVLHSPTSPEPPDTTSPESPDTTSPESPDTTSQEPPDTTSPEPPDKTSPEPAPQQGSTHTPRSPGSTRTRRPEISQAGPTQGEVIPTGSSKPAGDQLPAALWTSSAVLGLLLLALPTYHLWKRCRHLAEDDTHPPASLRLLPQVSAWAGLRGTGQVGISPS
# assay.method.text: cell-based or functional assay
Decide using Mean IC50, JY cell adhesion, MAdCAM FlpIn CHO Assay: a value greater than or equal to 0.4 µg/mL is label 1, a smaller one is label 0.

binder: anti-MAdCAM monoclonal antibody 6.73.2 (antibody, human IgG4, kappa, V domains shown, human IgG4 kappa from hybridoma 6.73.2) VH: EVQLLESGGDLVQPGGSLRLSCAASGFTFRSYAMNWVRQAPGKGLEWVSVISGRGGTTYYADSVKGRFTISRDNSKNTLYLQMNSLRAEDAAVYYCAKIAVAGEGLYYYYGMDVWGQGTTVTVSS VL: DIQMTQSPSSLSASVGDRVTFTCRASQNITNYLNWYQQKPGKAPKLLIYAASSLPRGVPSRFRGSGSGTDFTLTISSLQPEDFATYYCQQSYSNPPECGFGQGTTLDIKR
cat: label 0

Task: API: above_or_equal(metric=Mean IC50, JY cell adhesion, MAdCAM FlpIn CHO Assay, cutoff=0.4 µg/mL) for item anti-MAdCAM monoclonal antibody 9.8.2 (antibody, human IgG4, kappa, V domains shown, human IgG4 kappa from hybridoma 9.8.2) VH: QVQLVESGGGVVQPGRSLRLSCAASGFTFSSYGMHWVRQAPGKGLEWVAVIWYDGSNEYYADSVKGRFTISRDNSKNTLYLQMNSLRAEDTAVYYCARGAYHFAYWGQGTLVTVSS VL: DIQMTQSPSSLSASVGDRVTITCQASQDISNYLNWYQQKPGKAPKLLIYDASNLETGVPSRFSGSGSGTDFTFTISSLQPEDIATYSCQHSDNLSITFGQGTRLEIKR
Output: label 1

Task: What do you get for anti-MAdCAM monoclonal antibody 6.77.1 (antibody, human IgG4, kappa, V domains shown, human IgG4 kappa from hybridoma 6.77.1) VH: EVQLVESGGGLVKPGGSLRLSCAASGFTFSSYSMNWVRQAPGKGLEWVSSISSSSSYIYYADSVKGRFTISRDNAKNSLYLQMNSLRAEDTAVYYCARDGYSSGWSYYYYYGMDVWGQGTTVTVSS VL: DIVMTQTPLSLSVTPGQPASISCNSSQSLLLSDGKTYLNWYLQKPGQPPQLLIYEVSNRFSGVPDRFSGSGSGTDFTLKISRVEAEDVGVYSCMQSIQLMCSFGQGTKLEIKR ?
Output: label 1

Task: What do you get for anti-MAdCAM monoclonal antibody 7.26.4 (antibody, human IgG2, kappa, V domains shown, human IgG2 kappa from hybridoma 7.26.4) VH: QVQLVQSGAEVKKPGASVKVSCEASGYTFTSYGIDWVRQAPGQGLEWMGWISVYSGNTNYAQKLQGRVTMSTDTSTSTAYMELRSLRSDDTAVYYCAREGSSSSGDYYYGMDVWGQGTTVTVSS VL: DIVMTQTPLSLSVTPGQPASISCKSNQSLLYSDGKTYLFWYLQKPGQPPQLLIYEVSNRFSGVPDRFSGSGSGTDFTLKISRVEAEDVGVYYCMQSIQLPWTFGQGTKVEIKR ?
Output: label 1

Task: What do you get for anti-MAdCAM monoclonal antibody 6.34.2 (antibody, human IgG4, kappa, V domains shown, human IgG4 kappa from hybridoma 6.34.2) VH: QVQLVESGGGVVQPGRSLRLSCAASGFTFSSYGMHWVRQAPGKGLEWVAVISNDGNNKYYADSVKGRFTISRDNSKNTLYLQMNSLSAEDTAVYYCARDSTAITYYYYGMDVWGQGTTVTVSS VL: DIQMTQSPSSLSASVGDRVTITCRASQNISSYLNWFQQKPGKAPKLLIYAASGLKRGVPSRFSGSGSGTDFTLTIRTLQPDDFATYSCHQSYSLPFTFGPGTKVDIKR ?
Output: label 0

Task: What do you get for anti-MAdCAM monoclonal antibody 6.14.2 (antibody, human IgG4, kappa, V domains shown, human IgG4 kappa from hybridoma 6.14.2) VH: EVQLLESGGGLVQPGGSLRLSCAASGLTFNNSAMTWVRQAPGKGLEWVSTTSGSGGTTYYADSVKGRFTISRDSPKNTLYLQMNSLRAEDTAVYYCAARGYSYGTTPYEYWGQGTLVTVSS VL: DIQMTQSPSSLSASVGDRVTITCRASRSISSYLNWYQQKPGKAPKVLIFFVSSLQSGVPSRFSGSGSGTDFTLTISSLQPEDFATYYCQQNYIPPITFGQGTRLEIRR ?
Output: label 0
